This listing pairs compounds with measured IC50.
study target: human SGLT1 (Homo sapiens, UniProt P13866)
Construct: expressed in transfected cells; host or cells: CHO-K1 or HEK293
Sequence (P13866 whole entry): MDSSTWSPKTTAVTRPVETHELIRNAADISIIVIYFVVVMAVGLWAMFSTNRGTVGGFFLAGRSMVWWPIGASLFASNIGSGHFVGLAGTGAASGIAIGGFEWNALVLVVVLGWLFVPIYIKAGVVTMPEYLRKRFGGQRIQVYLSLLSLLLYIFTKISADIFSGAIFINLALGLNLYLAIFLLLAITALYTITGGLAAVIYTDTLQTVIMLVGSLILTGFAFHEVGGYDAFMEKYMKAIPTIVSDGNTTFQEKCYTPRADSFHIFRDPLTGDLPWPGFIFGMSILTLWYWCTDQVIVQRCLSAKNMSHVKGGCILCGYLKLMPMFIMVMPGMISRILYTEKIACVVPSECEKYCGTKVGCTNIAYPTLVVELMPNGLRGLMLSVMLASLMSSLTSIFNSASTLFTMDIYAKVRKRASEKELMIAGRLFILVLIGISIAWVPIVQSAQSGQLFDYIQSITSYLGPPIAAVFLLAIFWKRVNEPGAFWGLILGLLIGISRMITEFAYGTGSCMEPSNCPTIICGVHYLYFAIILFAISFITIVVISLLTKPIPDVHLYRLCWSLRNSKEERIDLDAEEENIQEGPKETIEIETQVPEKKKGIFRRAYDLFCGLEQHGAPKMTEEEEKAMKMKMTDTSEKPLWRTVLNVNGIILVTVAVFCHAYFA
assay summary: Analogous SGLT1 selectivity test: hSGLT1 expressed in CHO-K1 or HEK293 cells
Type: cell-based
test context: n = 1-4; 14C-AMG uptake, hSGLT1-transfected CHO-K1 or HEK293 cells

Consider the reported IC50 for these compounds:
>>> endpoint_value("CCOc1ccc(Cc2cc([C@@H]3OC(CO)(CO)[C@@H](O)[C@H](O)[C@H]3O)ccc2Cl)cc1 [Example 10]")
"> 30000 nM"
>>> endpoint_value("CCOc1ccc(Cc2cc([C@@H]3OC4(CC4)[C@@H](O)[C@H](O)[C@H]3O)ccc2Cl)cc1 [Example 2]")
"300 nM"
>>> endpoint_value("CCOc1ccc(Cc2cc([C@@H]3OC4(CC4)[C@@H](O)[C@H](O)[C@H]3O)ccc2C)cc1 [Example 3]")
"153 nM"

# ---- query compound ----
Given item Oc1ccc(Cc2cc([C@@H]3OC4(CC4)[C@@H](O)[C@H](O)[C@H]3O)ccc2Cl)cc1 [Example 6] , the value recorded as its IC50 is 460 nM

This collection of values is drawn from patent US8394772B2.
